Origin of the recorded values: PubChem BioAssay AID1159580

test: chemical genetic growth profiling, strain panel (AID 1159580);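 further: tested at 20 µM; growth read once vehicle control cultures reached saturation at 30 °C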; details: S. cerevisiae deletion strains, growth OD, locus YAL030W, strain snc1
In all, about 5,500 compounds went through this assay and about 2,000 (36%) were called active. Another 18% or so got no clear call; they are omitted. No stated cut-off is given here; in the data, active means normalized growth mostly below about 0.91 (no sharp cut-off); inconclusive means no clear call, values can overlap the other calls; inactive means mostly above about 0.92. Some of the results follow.
Hi there, use one of these labels in your reply, thanks! active, inactive

Worked examples, 3 molecules total:
>  <Molecule>
CC(=O)OCC(=O)[C@@]1(O)CCC2C3CC[C@@H]4C[C@H](O)CC[C@]4(C)C3C(=O)C[C@@]21C (some centres not stated)

>  <Label Class>
inactive

$$$$
>  <Molecule>
COc1ccc(-c2cc(=O)c3c(O)c(OC)c(OC)c(OC)c3o2)cc1

>  <Label Class>
inactive

$$$$
>  <Molecule>
CC(=O)O.CC(=O)O.[Cd]

>  <Label Class>
active

$$$$

Continue with the next molecule.
## Task Dear all, I need the recorded test outcome for CC1(C)O[C@@H]2CC3C4C[C@H](F)C5=CC(=O)C=CC5(C)C4C(O)CC3(C)[C@]2(C(=O)CO)O1 (some centres not stated) , thank you.
## Result inactive

----------
test: chemical genetic growth profiling, strain panel (AID 1159580);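 further: tested at 20 µM; growth read once vehicle control cultures reached saturation at 30 °C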; settings: S. cerevisiae deletion strains, growth OD, locus YPL106C, strain sse1
In all, about 5,500 compounds went through this assay and about 2,000 (36%) were called active. About 18% were inconclusive and are not listed. Rule as the data show it: active = normalized growth mostly below about 0.91 (no sharp cut-off); inconclusive = no clear call, values can overlap the other calls; inactive = mostly above about 0.92. The list shows a part of the results.
Hi there, use one of these labels in your reply, thanks! active, inactive

>  <Molecule>
O=c1oc2ccccc2c(O)c1Cc1c(O)c2ccccc2oc1=O

>  <Label Class>
inactive

$$$$
>  <Molecule>
CC(=O)[C@H]1CCC2C3CC=C4C[C@@H](O)CC[C@]4(C)C3CC[C@@]21C (stereo partly drawn)

>  <Label Class>
active

$$$$
>  <Molecule>
CC(=O)Oc1cc(-c2coc3cc(OC(C)=O)c(OC(C)=O)c(OC(C)=O)c3c2=O)cc(OC(C)=O)c1OC(C)=O

>  <Label Class>
inactive

$$$$
>  <Molecule>
CN1CCN2c3ccccc3Cc3ccccc3C2C1 (stereo not drawn)

>  <Label Class>
inactive

$$$$
>  <Molecule>
Nc1ccc(C(=O)Oc2ccccc2)c(O)c1

>  <Label Class>
inactive

$$$$

## Task Dear all, I need the recorded test outcome for CN(C)C(=O)Oc1cc(OC(=O)N(C)C)cc(C(O)CNC(C)(C)C)c1 (stereo not drawn) , thank you.
## Result inactive

## Task Continue with CC(=O)Nc1ccc(OC(=O)c2ccccc2O)cc1
## Result inactive

## Task Continue with CC(=O)CC(c1ccccc1)c1c(O)c2ccccc2oc1=O (stereo not drawn)
## Result inactive

## Task Continue with CC(=O)OCC(=O)[C@@]1(O)CCC2C3CC[C@@H]4C[C@H](O)CC[C@]4(C)C3C(=O)C[C@@]21C (stereo partly drawn)
## Result inactive

## Task Continue with O=C(O)c1cc(=O)c2ccccc2o1
## Result inactive

----------
assay: chemical genetic growth profiling, strain panel (AID 1159580);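 further: tested at 20 µM; growth read once vehicle control cultures reached saturation at 30 °C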; details: S. cerevisiae deletion strains, growth OD, locus YDR392W, strain spt3, hits give low values
Screen size: about 5,500 compounds; about 2,000 (36%) were called active. Inconclusive results (about 18%) are left out. The list shows a part of the results.
Threshold-based label: normalized growth under 0.9 gives true, normalized growth not under 0.9 gives false.

>  <Compound>
N[C@@H]1CONC1=O

>  <Label Class>
false

$$$$

## Task hey, is normalized growth for CC(=O)Oc1c(-c2ccccc2)oc2c(CC=C(C)C)c3c(c(OC(C)=O)c2c1=O)C=CC(C)(C)O3 lower than 0.9 or not?
## Result false

## Task Continue with CC(=O)Nc1cccc(O)c1
## Result false
